# protocol_summary: mRNA encapsulation by Qubit RNA HS dye fluorescence before and after Triton X-100 lysis
# Assay type: physicochemical
# recorded_conditions: Fluc mRNA/peptoid formulation, 5:1 mass ratio peptoid:cargo
% Encapsulation (percentage of mRNA encapsulation) reference
Enter your answer as a number in %; do not include the unit.

CCCCCCCCCCN(CC(N)=O)C(=O)CN(CCCCCCCCCC)C(=O)CN(CCCCCCCCCC)C(=O)CN(CCCCCCCCCC)C(=O)CN(CCc1ccccc1)C(=O)CN(CCc1ccccc1)C(=O)CN(CC1CCNCC1)C(=O)CN(CCc1ccccc1)C(=O)CN(CCc1ccccc1)C(=O)CN(CC1CCNCC1)C(=O)CN(CCc1ccccc1)C(=O)CN(CCc1ccccc1)C(=O)CNCC1CCNCC1: 35.7
CCCCCCCCCCN(CC(N)=O)C(=O)CN(CCCCCCCCCC)C(=O)CN(CCCCCCCCCC)C(=O)CN(CCCCCCCCCC)C(=O)CN(CCCCCCCCCC)C(=O)CN(CCc1ccccc1)C(=O)CN(CCc1ccccc1)C(=O)CN(CCN)C(=O)CN(CCc1ccccc1)C(=O)CN(CCc1ccccc1)C(=O)CNCCN: 72.2

Attention now shifts to the item below.
Suppose we examine the compound CCCCCCCCCCN(CC(N)=O)C(=O)CN(CCCCCCCCCC)C(=O)CN(CCc1ccccc1)C(=O)CN(CCc1ccccc1)C(=O)CN(CC1CCCN1)C(=O)CN(CCc1ccccc1)C(=O)CN(CCc1ccccc1)C(=O)CN(CC1CCCN1)C(=O)CN(CCc1ccccc1)C(=O)CN(CCc1ccccc1)C(=O)CNCC1CCCN1 (stereo not drawn) ; what % Encapsulation (percentage of mRNA encapsulation) value has been reported?
71.5

###

As shown below, each of these molecules has a reported Size (volume average particle size/diameter) value.
# protocol_summary: Dynamic light scattering (DLS) of Fluc mRNA/peptoid formulations: particle size and polydispersity
# Type: physicochemical
# recorded_conditions: Fluc mRNA/peptoid complex, 5:1 mass ratio peptoid:cargo
Note: a bare number is incomplete; add the unit.

CCCCCCCCCCN(CC(N)=O)C(=O)CN(CCCCCCCCCC)C(=O)CN(CCN)C(=O)CN(CCN)C(=O)CN(CCN)C(=O)CN(CCN)C(=O)CN(CCN)C(=O)CN(CCN)C(=O)CN(CCN)C(=O)CN(CCN)C(=O)CNCCN [Compound 16]: 1486 nm
CCCCCCCCCCN(CC(N)=O)C(=O)CN(CCCCCCCCCC)C(=O)CN(CCc1ccccc1)C(=O)CN(CCc1ccccc1)C(=O)CN(CCN)C(=O)CN(CCc1ccccc1)C(=O)CN(CCc1ccccc1)C(=O)CN(CCN)C(=O)CN(CCc1ccccc1)C(=O)CN(CCc1ccccc1)C(=O)CNCCN [Compound 2]: 150 nm

Now turn to the next molecule.
Which Size (volume average particle size/diameter) value belongs to CCCCCCCCCCN(CC(N)=O)C(=O)CN(CCCCCCCCCC)C(=O)CN(CCc1ccccc1)C(=O)CN(CCc1ccccc1)C(=O)CN(CCN)C(=O)CN(CCc1ccccc1)C(=O)CN(CCc1ccccc1)C(=O)CN(CCN)C(=O)CN(CCc1ccccc1)C(=O)CN(CCc1ccccc1)C(=O)CN(CCN)C(=O)CN(CCc1ccccc1)C(=O)CN(CCc1ccccc1)C(=O)CNCCN [Compound 11] ?
354.9 nm

###

Reported Size PDI (size polydispersity index) by item:
# protocol_summary: Dynamic light scattering (DLS) of Fluc mRNA/peptoid formulations: particle size and polydispersity
# Assay type: physicochemical
# recorded_conditions: Fluc mRNA/peptoid formulation, 5:1 mass ratio peptoid:cargo
# answer = number (no unit)

Worked cases, answers included:
CCCCCCCCCCN(CC(N)=O)C(=O)CN(CCCCCCCCCC)C(=O)CN(CCc1ccccc1)C(=O)CN(CCc1ccccc1)C(=O)CN(CCCN)C(=O)CN(CCc1ccccc1)C(=O)CN(CCc1ccccc1)C(=O)CN(CCCN)C(=O)CN(CCc1ccccc1)C(=O)CN(CCc1ccccc1)C(=O)CNCCCN [Compound 30]: 0.455
CCCCCCCCCCN(CC(N)=O)C(=O)CN(CCCCCCCCCC)C(=O)CN(CCCCCCCCCC)C(=O)CN(CCCCCCCCCC)C(=O)CN(CCCCCCCCCC)C(=O)CN(CCCCCCCCCC)C(=O)CN(CCc1ccccc1)C(=O)CN(CCc1ccccc1)C(=O)CN(CCN)C(=O)CN(CCc1ccccc1)C(=O)CN(CCc1ccccc1)C(=O)CN(CCN)C(=O)CN(CCc1ccccc1)C(=O)CN(CCc1ccccc1)C(=O)CNCCN [Compound 22]: 0.538

Fill in: Size PDI (size polydispersity index) of CCCCCCCCCCN(CC(N)=O)C(=O)CN(CCCCCCCCCC)C(=O)CN(CCCCCCCCCC)C(=O)CN(CCCCCCCCCC)C(=O)CN(CCc1ccccc1)C(=O)CN(CCc1ccccc1)C(=O)CN(CC1CCNCC1)C(=O)CN(CCc1ccccc1)C(=O)CN(CCc1ccccc1)C(=O)CN(CC1CCNCC1)C(=O)CN(CCc1ccccc1)C(=O)CN(CCc1ccccc1)C(=O)CN(CC1CCNCC1)C(=O)CN(CCc1ccccc1)C(=O)CN(CCc1ccccc1)C(=O)CNCC1CCNCC1 [Compound 32] is ___
0.274

These measurements were taken from patent US11701434B2.
